All figures here come from patent US9980943B2.

# System: α7 integrin (LacZ reporter in α7βgal+/− myoblasts)
# procedure.summary: Myoblast α7+/LacZ integrin FDG assay (Burkin assay in myoblasts, 96-well)
# Type: cell-based, mouse
# condition.description: 1 uM; α7+/LacZ myoblasts, 96-well
parameter: Burkin Assay in Myoblasts, signal relative to DMSO
# respond with the number and nothing more

Some molecules with recorded Burkin Assay in Myoblasts, signal relative to DMSO:
>  <molecule>
CC(C)c1ccc(OC(=O)c2cccc(S(=O)(=O)N3CCN(C)CC3)c2)cc1 [MLS001130011-01]

>  <recorded.number>
0.8947

$$$$
>  <molecule>
CCCn1c(-c2cc(OC)c(OC)c(OC)c2)nc2c1c(=O)[nH]c(=O)n2Cc1ccccc1 [MLS001174740-01]

>  <recorded.number>
1.193

$$$$

Need Burkin Assay in Myoblasts, signal relative to DMSO of CC(C)(C)Nc1nc(-c2ccc3c(c2)CCN3C(=O)C2CC2)cs1 [MLS001216939-01] , thanks.
1.2827

# lookup: Burkin Assay in Myoblasts, signal relative to DMSO of Cn1c(O)c(C(C#N)=C2N=c3ccccc3=N2)c2ccccc21 [MLS000536064-01]
0.804

Look at this molecule and give its reported Burkin Assay in Myoblasts, signal relative to DMSO. Cc1[nH]c2ccc(F)cc2c1CCN(Cc1ccco1)C(=S)NC(C)(C)C [MLS000419286-01]
1.002

Which measured Burkin Assay in Myoblasts, signal relative to DMSO value corresponds to CCCCN1CC(=O)N2Cc3[nH]c4ccccc4c3C[C@H]2C1=O [MLS001165424-01] ?
1.2222

Name the reported Burkin Assay in Myoblasts, signal relative to DMSO value associated with the molecule Cc1cc([N+](=O)[O-])ccc1NC(=O)C(C)N1CCN(c2ccccn2)CC1 (centres unmarked) [MLS000764729-01]
1.0582

May I ask what Burkin Assay in Myoblasts, signal relative to DMSO has been recorded for OC(c1nc2ccc(F)cc2[nH]1)C(O)c1nc2ccc(F)cc2[nH]1 (centres unmarked) [MLS001182368-01] ?
1.215
